study-system: Voltage-gated potassium channel subunit beta-2 (Rattus norvegicus)
procedure-details: KvBeta enzyme negative modulators, primary screen, biochemical, NADPH fluorescence (AID 622);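 further: slope of raw intensity against log time taken from 70 to 1610 s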
condition-details: recombinant KvBeta, 4-cyanobenzaldehyde reduction, at 10 µM, hits give high values
Here, each record is paired with measured fluorescence slope data.
outcome-measure: fluorescence slope

[
  {
    "molecule": "CCOc1ccc(NC(=O)c2nn(C)cc2Br)cc1",
    "numeric-value": -0.489
  },
  {
    "molecule": "CCc1ccccc1NC(=O)CCc1nc(-c2ccc(C)cc2)no1",
    "numeric-value": -0.299
  },
  {
    "molecule": "CCCn1nc(CC(=O)O)c2ccccc2c1=O",
    "numeric-value": -0.426
  },
  {
    "molecule": "CCC(=O)N(Cc1cccs1)C1CCOC(C)(C)C1 (stereo unspecified)",
    "numeric-value": -0.389
  },
  {
    "molecule": "O=C(NCc1ccccc1)C1C(=O)N(Cc2ccccc2)C(=O)C1C1(O)CCCC1 (stereo unspecified)",
    "numeric-value": -0.508
  },
  {
    "molecule": "CCCOC(=O)CSc1nc(N)c(C#N)c(CC)c1C#N",
    "numeric-value": -0.532
  }
]
